measured-target: T1, human thrombin receptor (human, UniProt P25116 42-425)
T1 chain: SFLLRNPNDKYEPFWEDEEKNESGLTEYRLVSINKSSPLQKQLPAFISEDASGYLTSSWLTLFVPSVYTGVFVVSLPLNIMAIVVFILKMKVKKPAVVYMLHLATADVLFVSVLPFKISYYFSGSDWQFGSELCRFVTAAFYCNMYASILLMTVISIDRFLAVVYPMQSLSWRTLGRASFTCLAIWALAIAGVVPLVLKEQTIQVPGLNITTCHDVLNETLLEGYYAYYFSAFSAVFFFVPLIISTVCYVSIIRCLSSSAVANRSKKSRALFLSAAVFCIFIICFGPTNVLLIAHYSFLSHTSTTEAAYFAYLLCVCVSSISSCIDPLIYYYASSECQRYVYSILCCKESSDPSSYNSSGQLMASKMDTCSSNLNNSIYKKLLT
method-description: cell-based or functional assay
Square brackets hold non-standard residues; d marks the D form. Cha = N[C@@H](CC1CCCCC1)C(=O)O; Mpa = O=C(O)CCS
endpoint: IC50 (50% inhibition of thrombin-induced platelet activation or aggregation) (µM)

| binder | unit-text | result-number |
| --- | --- | --- |
| [Mpa]F[Cha][Cha]RNPADK-NH2 (SMILES C[C@H](NC(=O)[C@@H]1CCCN1C(=O)[C@H](CC(N)=O)NC(=O)[C@H](CCCNC(=N)N)NC(=O)[C@H](CC1CCCCC1)NC(=O)[C@H](CC1CCCCC1)NC(=O)[C@H](Cc1ccccc1)NC(=O)CCS)C(=O)N[C@@H](CC(=O)O)C(=O)N[C@@H](CCCCN)C(N)=O) [Mpr-F(Cha) (Cha)RNPADK-NH2] | µM | 75 |
| [Mpa]F[Cha][Cha]RNPNDKYE-NH2 (SMILES N=C(N)NCCC[C@H](NC(=O)[C@H](CC1CCCCC1)NC(=O)[C@H](CC1CCCCC1)NC(=O)[C@H](Cc1ccccc1)NC(=O)CCS)C(=O)N[C@@H](CC(N)=O)C(=O)N1CCC[C@H]1C(=O)N[C@@H](CC(N)=O)C(=O)N[C@@H](CC(=O)O)C(=O)N[C@@H](CCCCN)C(=O)N[C@@H](Cc1ccc(O)cc1)C(=O)N[C@@H](CCC(=O)O)C(N)=O) [Mpr-F(Cha) (Cha)RNPNDKYE-NH2] | µM | 80 |
| Pivaloyl-FLLR-NH2 [Pivaloyl-FLLR-NH2] | µM | 1000 |
| [Mpa]F[Cha][Cha]RNPNDKY-NH2 (SMILES N=C(N)NCCC[C@H](NC(=O)[C@H](CC1CCCCC1)NC(=O)[C@H](CC1CCCCC1)NC(=O)[C@H](Cc1ccccc1)NC(=O)CCS)C(=O)N[C@@H](CC(N)=O)C(=O)N1CCC[C@H]1C(=O)N[C@@H](CC(N)=O)C(=O)N[C@@H](CC(=O)O)C(=O)N[C@@H](CCCCN)C(=O)N[C@@H](Cc1ccc(O)cc1)C(N)=O) [Mpr-F(Cha) (Cha)RNPNDKY-NH2] | µM | 75 |
| [Mpa]FLLRNPNDKYE-NH2 (SMILES CC(C)C[C@H](NC(=O)[C@H](Cc1ccccc1)NC(=O)CCS)C(=O)N[C@@H](CC(C)C)C(=O)N[C@@H](CCCNC(=N)N)C(=O)N[C@@H](CC(N)=O)C(=O)N1CCC[C@H]1C(=O)N[C@@H](CC(N)=O)C(=O)N[C@@H](CC(=O)O)C(=O)N[C@@H](CCCCN)C(=O)N[C@@H](Cc1ccc(O)cc1)C(=O)N[C@@H](CCC(=O)O)C(N)=O) [Mpr-FLLRNPNDKYE-NH2] | µM | 108 |
| [Mpa]F[Cha][Cha]RNPND-NH2 (SMILES N=C(N)NCCC[C@H](NC(=O)[C@H](CC1CCCCC1)NC(=O)[C@H](CC1CCCCC1)NC(=O)[C@H](Cc1ccccc1)NC(=O)CCS)C(=O)N[C@@H](CC(N)=O)C(=O)N1CCC[C@H]1C(=O)N[C@@H](CC(N)=O)C(=O)N[C@@H](CC(=O)O)C(N)=O) [Mpr-F(Cha) (Cha)RNPND-NH2] | µM | 50 |
